# assaySummary: logP by HPLC on reversed-phase column (EEC Directive 79/831 Annex V.A8)
# conditionContext: HPLC on reversed-phase column (C 18), 40° C., 0.1% aqueous formic acid and acetonitrile, linear gradient 10% to 90% acetonitrile
In this section, each of the molecules is paired with its reported logP.
Respond using a number only.

Recorded results for 3 molecules are shown here.
| molecule | logP |
| --- | --- |
| Cn1nc(C(F)F)c(C(=O)N(Cc2ccccc2OC(F)(F)F)C2CC2)c1F | 3.46 |
| Cn1nc(C(F)F)c(C(=O)N(Cc2cccc(C(F)(F)F)c2Cl)C2CC2)c1F | 3.64 |
| Cn1nc(C(F)F)c(C(=O)N(C2CC2)C2CCc3cccc(Cl)c32)c1F (stereo not shown) | 3.42 |

Moving on to another molecule below.
INPUT: logP for CCCCC1Cc2ccccc2C1N(C(=O)c1c(C(F)F)nn(C)c1F)C1CC1 (stereo not shown) ?
OUTPUT: 4.85

###

chromatographic logP for assorted molecules
# assaySummary: logP by HPLC on reversed-phase column (EEC Directive 79/831 Annex V.A8)
Output: the number by itself.

| molecule | chromatographic logP |
| --- | --- |
| Cn1nc(C(F)F)c(C(=S)N(Cc2ccccc2[Si](C)(C)C)C2CC2)c1F [Example 38] | 4.94 |

Next molecule, please.
INPUT: Field request: chromatographic logP | item: Cn1nc(C(F)F)c(C(=O)N(Cc2ccccc2[Si](C)(C)C)C2CC2)c1F [Example 3]
OUTPUT: 4.36

###

# assaySummary: logP by HPLC on reversed-phase column (EEC Directive 79/831 Annex V.A8)
# conditionContext: HPLC, reversed-phase column (C 18), 40° C., 0.1% aqueous formic acid and acetonitrile, linear gradient 10% to 90% acetonitrile
// label = rule met if logP is not less than 4, otherwise rule not met

Known results for compounds:
| compound | group |
| --- | --- |
| CC(C)Cc1cccc(Cl)c1CN(C(=O)c1c(C(F)F)nn(C)c1F)C1CC1 [Example 32] | rule met |
| Cn1nc(C(F)F)c(C(=O)N(C2CC2)C2CC(C)(C)c3ccccc32)c1F (centres unmarked) [Example 85] | rule not met |
| Cc1cc(Cl)c(CN(C(=O)c2c(C(F)F)nn(C)c2F)C2CC2)cc1C [Example 79] | rule not met |

INPUT: Has Cn1nc(C(F)F)c(C(=O)N(Cc2cc(Cl)ccc2[Si](C)(C)C)C2CC2)c1F [Example 24] a recorded logP greater than or equal to 4?
OUTPUT: rule met

INPUT: Exam item: decide whether the reported logP for Cn1nc(C(F)F)c(C(=O)N(Cc2cc(Br)c3c(c2Br)OCO3)C2CC2)c1F [Example 87] is at least 4.
OUTPUT: rule not met

INPUT: logP >= 4 for CC(c1ncc(C(F)(F)F)cc1Cl)N(C(=O)c1c(C(F)F)nn(C)c1F)C1CC1 (centres unmarked) [Example 90] ?
OUTPUT: rule not met

INPUT: Record Cn1nc(C(F)F)c(C(=O)N(C2CC2)C2CCOc3ccccc32)c1F (centres unmarked) [Example 86] ; criterion: logP no lower than 4. Met?
OUTPUT: rule not met

###

# assaySummary: logP by HPLC on reversed-phase column (EEC Directive 79/831 Annex V.A8)
# conditionContext: HPLC, reversed-phase column (C 18), 40° C., 0.1% aqueous formic acid and acetonitrile, linear gradient 10% to 90% acetonitrile
Below: a set of entries, each annotated with reported logP.
Please reply with the value in numeric form only.

Before answering, review these 5 worked examples.
| molecule | number |
| --- | --- |
| Cn1nc(C(F)F)c(C(=S)N(Cc2ccccc2)C2CC2)c1F | 3.44 |
| CCCCC(c1ccccc1)N(C(=O)c1c(C(F)F)nn(C)c1F)C1CC1 (centres unmarked) | 4.26 |
| Cn1nc(C(F)F)c(C(=O)N(Cc2cc(Cl)ccc2C2CC2)C2CC2)c1F | 3.87 |
| CC(c1cc(Cl)cc(Cl)c1)N(C(=O)c1c(C(F)F)nn(C)c1F)C1CC1 (racemic) | 4.04 |
| CC(c1cc(C(F)(F)F)ccc1Cl)N(C(=O)c1c(C(F)F)nn(C)c1F)C1CC1 (centres unmarked) | 3.89 |

INPUT: Field request: logP | item: `Cn1nc(C(F)F)c(C(=O)N(Cc2ccc(Cl)cc2I)C2CC2)c1F`
OUTPUT: 3.99

INPUT: Using the record for CC(c1ncc(Cl)cc1Cl)N(C(=O)c1c(C(F)F)nn(C)c1F)C1CC1 (centres unmarked) , report its logP.
OUTPUT: 3.48

INPUT: Request the reported logP associated with `CCc1ccccc1CN(C(=O)c1c(C(F)F)nn(C)c1F)C1CC1`
OUTPUT: 3.33

INPUT: Sample `Cn1nc(C(F)F)c(C(=O)N(Cc2cc(I)ccc2C(F)(F)F)C2CC2)c1F` — what was its logP?
OUTPUT: 4.01

INPUT: Look at this molecule and give its reported logP. `Cn1nc(C(F)F)c(C(=O)N(Cc2c(Br)cccc2Br)C2CC2)c1F`
OUTPUT: 3.51

INPUT: Param item = `CCCCCc1ccccc1CN(C(=O)c1c(C(F)F)nn(C)c1F)C1CC1` ; retrieve measured logP.
OUTPUT: 4.62
